- Measurement protocol: yeast display, Sf9 membrane polyspecificity reagent, FACS + sequencing; frameworks hold sequencing errors
Observable: polyreactivity (PSR sort gate)

Below: 4 sequences and their reported polyreactivity (PSR sort gate).
polymer_sequence=QVQLVESVGGLVQAGGSLRLSCAASGRTFAAYAMGWYRQAPGKERELVAGITSSSVRTYYADSVKGRFTISRDNAKNTVYLQMNSLKPEDTAVYYCNARADGSSSRWRPYSKFYYWGQGTQVTVSS test_result="low polyreactivity"
polymer_sequence=QVQLVESGGGLVQAGGSLRLSCAASGFILYGNAMGWYRQAPGKERELVAAISRRGGSTYYADSVKGRFTISRDNAKNTVYLQMNSLKPEDTALYYCAKDGPGGGTRIYDYWGQGTQVTVSS test_result="high polyreactivity"
polymer_sequence=QVQLVESGGGLVQAGGSLRLSCAASGRTFYRYAMGWYRQAPWKERELVAAITKRGSGTYYADSVKGRFTISRDNAKNTVYLQMNSLKPEDTAVYYCATDGYIRPSRPAPTQPTFNYWGQGSQVTVSS test_result="high polyreactivity"
polymer_sequence=QGQLVESGGVLVQGGGSLRLSCAASGSIFVYNAMGWSRQAPGKERELVAANTSSGASTYYADSVKGRFPISRDNAKNTVYLQMISLNPEDTDVYYCNAGADSTVGNYVTSFSQYDFWGQGTQVTVSS test_result="low polyreactivity"

query: Which polyreactivity (PSR sort gate) reading was recorded for the sequence QVQLVESGGGLVQAGGSLRLSCAASGRIFGTNARGWYRQAPGKERELVADITSGGSTNYADSVKGRFTISRDNAKNTVYLQMNSLKPEDTAVYYCAADVIGDLRWYRDEYWGQGTQVTVSS ?
result: low polyreactivity
